Exercise: state measured growth for each of the compounds provided.
# Tested on: IGROV1 ovarian
# PROTOCOL DETAILS: NCI-60 one-dose screen, 48 h (100 = growth as untreated, 0 = no growth, -100 = all killed)
# EXPERIMENTAL CONTEXT: 10 µM
This is part of a sample that, as a whole, favours compounds with a hit. Of some 83,000 tested, about 20% had one in any assay.
Give bare numbers, in %.

Below, each entry is followed by its recorded growth result.
INSERT INTO measurements (smiles_data, result_value) VALUES
  ('[Cl][Hg][c]1ccc(Cl)s1', 26.2),
  ('O=C1C=Cc2ccccc2C1=O', 77.7),
  ('NC(=O)c1cc([N+](=O)[O-])c(Cl)c([N+](=O)[O-])c1Cl', 27.6);

Batch request: growth for each of the following compounds.
1. O=S(=O)(F)c1ccc(Cl)cc1
2. C[CH2][Hg][S]c1ccccc1C(=O)O
3. COc1cc(/C=C/[N+](=O)[O-])cc(Br)c1OC
4. CC(C)c1cc([N+](=O)[O-])cc([N+](=O)[O-])c1O

1. 113
2. 16.9
3. 1.74
4. 111

* * *

Exercise: state measured growth for each of the compounds provided.
# System: NCI-H23 lung
# PROTOCOL DETAILS: NCI-60 one-dose screen, 48 h (100 = growth as untreated, 0 = no growth, -100 = all killed)
# EXPERIMENTAL CONTEXT: 10 µM
The panel holds about 83,000 compounds, 20% with a hit somewhere; the sample as a whole holds those more often.
One number for each entry, in %.

Some entries whose results are on file:
INSERT INTO measurements (compound, result_value) VALUES
  ('C/C1=C\[C@H](C)C[C@H](C)OC(=O)C[C@H](c2ccc(O)cc2)NC(=O)[C@@H](Cc2c(Br)[nH]c3ccccc23)N(C)C(=O)[C@H](C)NC(=O)[C@@H](C)C1', -4.18),
  ('CN(CCCl)c1ccc(/C=C/C2=[N+](C)c3ccccc3C2(C)C)cc1', 9.42),
  ('C[C@@H]1C[C@@H]([C@H](O)CC2CC(=O)NC(=O)C2)C(=O)[C@@H](C)C1', -3.78),
  ('NC(=O)c1cc([N+](=O)[O-])c(Cl)c([N+](=O)[O-])c1', 88.6),
  ('COC(=O)C1C(O)C(C)C(O)C(C)/C=C\C=C(C)C(=O)Nc2c(C)c(OC(C)=O)c3c(c2O)C(=O)C(C)=C2OCOC(=C23)C(C)=CC(C)(O)C(O)C(C)C1O (stereo not drawn)', 97.6),
  ('CC(C)c1cc([N+](=O)[O-])cc([N+](=O)[O-])c1O', 102);

Hey, can you go through the list below and give me growth for every item?
1. O=C(O)c1cc(Cc2ccc(O)c(C(=O)O)c2)ccc1O (tested in a mixture with another compound)
2. CC/C(=C/c1ccc(OC)cc1)[N+](=O)[O-]

1: 87.6; 2: 51.8

* * *

# Test system: NCI-H226 lung
# PROTOCOL DETAILS: NCI-60 one-dose screen, 48 h (100 = growth as untreated, 0 = no growth, -100 = all killed)
# EXPERIMENTAL CONTEXT: 10 µM
Compounds without any hit were thinned out: in the full panel of roughly 83,000, 20% have a hit.
MEASUREMENT LABEL: growth (%)
Answers are plain numbers, in %.

INSERT INTO measurements (compound, display_unit, result_value) VALUES
  ('CC[C@@]1(O)C[C@H](OC2CC(N(C)C)C(O)C(C)O2)c2c(cc3c(c2O)C(=O)c2c(O)ccc(O)c2C3=O)[C@H]1C(=O)OC (stereo partly drawn)', '%', -62.3),
  ('COc1cc2c(c(OC)c1OC)-c1ccc(O)c(=O)cc1[C@@H](NC(C)=O)CC2', '%', 68.9),
  ('COC(C(=O)C(O)C(C)O)C1Cc2cc3cc(OC4CC(OC(C)=O)C(OC5CC(O)C(OC)C(C)O5)C(C)O4)cc(O)c3c(O)c2C(=O)C1OC1CC(OC2CC(OC3CC(C)(O)C(OC(=O)C(C)C)C(C)O3)C(O)C(C)O2)C(O)C(C)O1 (stereo not drawn)', '%', -12.6),
  ('O=[N+]([O-])/C=C/c1ccc([N+](=O)[O-])cc1', '%', 114),
  ('CS(=N)(=O)CCC(N)C(=O)O (stereo not drawn)', '%', 101),
  ('O=S(=O)(F)c1ccc(Cl)cc1', '%', 109),
  ('CC(=O)[O][Hg][c]1c(C)c(C)cc(C)c1C', '%', -5.8);

Attention now turns to another entry.
Specify reported growth for the compound shown: CC/C(=C/c1ccc(OC)cc1)[N+](=O)[O-]
-12.5
